For each record, write down the corresponding Ki.
target: PknB (Mycobacterium tuberculosis); construct: made in house; assay: biochemical; set-up: species or system M. tuberculosis; conditions: 3 nM PknB, 6 uM GarA, 3 μM ATP, 30 min; competitive tight-binding fit; several symbols in a cell = repeat determinations; read-out: Ki Values

Asked: Query Ki for NS(=O)(=O)c1ccc(-c2ncc(C(=O)O)c(Nc3cc(C4CC4)[nH]n3)n2)s1
Given back: 500 to 1000 nM

Asked: Please give measured Ki of the following entry: CSc1cc(Nc2cc(C3CC3)n[nH]2)nc(-c2ccc(S(N)(=O)=O)s2)n1
Given back: 100 to 500 nM

Asked: Assign Ki to the following record: Clc1cnc(-c2ccccn2)nc1Nc1cc(C2CC2)[nH]n1
Given back: 1000 to 2000 nM

Asked: State, in one line, measured Ki of COCCNS(=O)(=O)c1ccc(-c2ncc(Cl)c(Nc3cc(C4CC4)[nH]n3)n2)s1
Given back: 10 to 50 nM

Asked: Give recorded Ki. CNS(=O)(=O)c1ccc(-c2ncc(Cl)c(Nc3cc(C4CC4)[nH]n3)n2)s1
Given back: 1 to 10 nM

Asked: Respond only with Ki recorded for CNS(=O)(=O)c1ccc(-c2nccc(Nc3cc(C4CC4)[nH]n3)n2)s1
Given back: 1 to 10 nM

Asked: Please look at this compound and report its Ki: CC(=O)NCc1ccc(-c2ncc(Cl)c(Nc3cc(C4CC4)n[nH]3)n2)s1
Given back: 10 to 50 nM

Asked: Could you please provide reported Ki for CS(=O)(=O)c1ccc(Nc2nccc(Nc3cc(C4CC4)[nH]n3)n2)cc1 ? Thanks!
Given back: 1 to 10 nM

Asked: Please report the measured Ki for NS(=O)(=O)c1ccc(-c2nc(Nc3cc(C4CC4)n[nH]3)ncc2Cl)s1
Given back: 1 to 10 nM

Asked: Find the measured Ki of O=C(O)c1cccc(Nc2nccc(Nc3cc(C4CC4)n[nH]3)n2)c1 and report it.
Given back: > 4000 nM

Asked: Output Ki of Cc1cnc(-c2ccc(S(N)(=O)=O)s2)nc1Nc1cc(C2CC2)n(C)n1
Given back: > 4000 nM

Asked: Retrieve Ki measured for C#Cc1cnc(-c2ccc(C(C)(C)C#N)s2)nc1Nc1cc(C2CC2)[nH]n1 and print it.
Given back: 1 to 10 nM

Asked: Tell me measured Ki for COC(=O)NCc1ccc(-c2ncc(Cl)c(Nc3cc(C4CC4)n[nH]3)n2)s1 please.
Given back: 10 to 50 nM

Asked: Note Ki for the compound shown: CC(C)(C)NS(=O)(=O)c1ccc(-c2ncc(Cl)c(Nc3cc(C4CC4)[nH]n3)n2)cn1
Given back: 10 to 50 nM

Asked: Give reported Ki value for Cc1cnc(-c2ccc([C@@H](C)O)s2)nc1Nc1cc(C2CC2)[nH]n1
Given back: 50 to 100 nM

Asked: Hello, please tell me recorded Ki for this one: NS(=O)(=O)c1ccc(-c2nc(CO)cc(Nc3cc(C4CC4)[nH]n3)n2)s1
Given back: 1 to 10 nM

Asked: Let me know recorded Ki for CC(=O)OCCc1cnc(-c2ccc(S(N)(=O)=O)s2)nc1Nc1cc(C2CC2)[nH]n1 , thanks.
Given back: 10 to 50 nM

Asked: Provide only the value of recorded Ki for C#Cc1cnc(-c2ccc(C(C)(C)O)s2)nc1Nc1cc(C2CC2)[nH]n1
Given back: 10 to 50 nM

Asked: Determine its reported Ki: NC(=S)c1ncc(Cl)c(Nc2cc(C3CC3)[nH]n2)n1
Given back: 500 to 1000 nM

Asked: Write down Ki measured for item NS(=O)(=O)c1ccc(-c2ccnc(Nc3cc(C4CC4)n[nH]3)n2)s1
Given back: 1 to 10 nM

Asked: Supply Ki value. Item: NS(=O)(=O)c1ccc(-c2ncc(Cl)c(Nc3cc(-c4cccs4)[nH]n3)n2)s1
Given back: > 4000 nM

----------
molecular target: PknB (Mycobacterium tuberculosis); construct: made in house; assay: biochemical; design: species or system M. tuberculosis; conditions: 3 nM PknB, 6 uM GarA, 3 μM ATP, 30 min; competitive tight-binding fit; several symbols in a cell = repeat determinations; read-out: Ki Values
readout label: Ki

Asked: Param request: Ki | system PknB (Mycobacterium tuberculosis) | item Cc1cnc(-c2ccc(S(C)(=O)=O)cc2)nc1Nc1cc(C2CC2)[nH]n1
Given back: 100 to 500 nM

Asked: Fill in: Ki on PknB (Mycobacterium tuberculosis), entry CC(O)c1cccc(-c2nccc(Nc3cc(C4CC4)[nH]n3)n2)c1 (centres unmarked)
Given back: 10 to 50 nM

Asked: Please respond with reported Ki (system PknB (Mycobacterium tuberculosis)) for Cc1nc(-c2ccc(S(N)(=O)=O)s2)nc(Nc2cc(C3CC3)[nH]n2)c1Cl .
Given back: 1 to 10 nM

Asked: Give the observed Ki of C#Cc1cnc(N2CCN(C(C)=O)CC2)nc1Nc1cc(C2CC2)n[nH]1 for PknB (Mycobacterium tuberculosis).
Given back: 500 to 1000 nM

Asked: System PknB (Mycobacterium tuberculosis). Read-out Ki. Item Clc1cnc(-c2cccs2)nc1Nc1cc(C2CC2)[nH]n1 . Report value.
Given back: 50 to 100 nM

----------
target: PknB (Mycobacterium tuberculosis, UniProt P9WI81); construct: made in house; assay: biochemical; parameters: species or system M. tuberculosis; details: 3 nM PknB, 6 uM GarA, 3 μM ATP, 30 min; competitive tight-binding fit; several symbols in a cell = repeat determinations; read-out: Ki Values
Sequence (P9WI81 whole entry): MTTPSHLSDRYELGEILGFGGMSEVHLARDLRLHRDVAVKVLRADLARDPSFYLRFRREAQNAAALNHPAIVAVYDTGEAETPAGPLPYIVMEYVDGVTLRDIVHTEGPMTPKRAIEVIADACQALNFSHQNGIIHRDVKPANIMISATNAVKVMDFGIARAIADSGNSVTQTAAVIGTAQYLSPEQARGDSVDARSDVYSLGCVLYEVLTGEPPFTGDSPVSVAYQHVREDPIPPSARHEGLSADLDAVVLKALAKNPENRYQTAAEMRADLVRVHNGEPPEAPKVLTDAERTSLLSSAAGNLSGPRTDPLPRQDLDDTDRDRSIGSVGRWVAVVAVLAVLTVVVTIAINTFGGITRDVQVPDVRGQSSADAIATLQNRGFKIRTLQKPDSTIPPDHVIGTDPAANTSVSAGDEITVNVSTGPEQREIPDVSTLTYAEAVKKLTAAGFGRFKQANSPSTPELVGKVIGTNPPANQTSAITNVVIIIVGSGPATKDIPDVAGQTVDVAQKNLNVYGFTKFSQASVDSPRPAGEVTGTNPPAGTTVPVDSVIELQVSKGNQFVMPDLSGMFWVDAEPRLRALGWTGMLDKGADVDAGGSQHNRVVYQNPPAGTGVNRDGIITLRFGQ
pKi: −log10 of the molar value.
Exercise: for every item that follows, state its recorded pKi.

Asked: Fill in reported pKi for this entry: O=S(=O)(O)c1ccc(-c2ncc(Cl)c(Nc3cc(C4CC4)[nH]n3)n2)s1 [Compound 306]
Given back: 7.30 to 8.00

Asked: Supply reported pKi belonging to this compound: NCCNS(=O)(=O)c1cccc(-c2ncc(Cl)c(Nc3cc(C4CC4)[nH]n3)n2)c1 [Compound 138]
Given back: 7.30 to 8.00

Asked: Name the recorded pKi of the compound listed here: Cc1cc(-c2ccc(S(N)(=O)=O)s2)nc(Nc2cc(C3CC3)n[nH]2)n1 [Compound 322]
Given back: 8.00 to 9.00

Asked: Recall and state the measured pKi for C#Cc1cnc(N2CC[C@H](N)C2)nc1Nc1cc(C2CC2)n[nH]1 [Compound 187] .
Given back: < 5.40

----------
molecular target: PknB (Mycobacterium tuberculosis, UniProt P9WI81); construct: made in house; assay: biochemical; design: species or system M. tuberculosis; conditions: 3 nM PknB, 6 uM GarA, 3 μM ATP, 30 min; competitive tight-binding fit; several symbols in a cell = repeat determinations
readout label: Ki Values

Look over these answered cases.
> print(dat)
                           substance.smiles                                 tested.on  readout.label        result
1  C#Cc1cnc(-c2ccc([C@@H](C)O)s2)nc1Nc1cc(C2CC2)n[nH]1  PknB (Mycobacterium tuberculosis, UniProt P9WI81)      Ki Values  A**, A**, A*
2  C#Cc1cnc(-c2ccc([C@H](O)C(C)C)s2)nc1Nc1cc(C2CC2)n[nH]1  PknB (Mycobacterium tuberculosis, UniProt P9WI81)      Ki Values  A**, A**, A*
3  CNS(=O)(=O)c1ccc(-c2ncc(Cl)c(Nc3cc(C4CC4)n[nH]3)n2)cc1  PknB (Mycobacterium tuberculosis, UniProt P9WI81)      Ki Values         A*, A
4  CC(C)(C)NS(=O)(=O)c1ccc(-c2ncc(Br)c(Nc3cc(C4CC4)[nH]n3)n2)s1  PknB (Mycobacterium tuberculosis, UniProt P9WI81)      Ki Values         A*, A

Asked: Dear colleague, please send me the reported Ki Values for Nc1cnc(-c2ccccc2)nc1Nc1cc(C2CC2)[nH]n1 when you can.
Given back: A*, A

----------
So I've got a bunch of compounds here, and I need their pKi values.
target: PknB (Mycobacterium tuberculosis, UniProt P9WI81); construct: made in house; experiment: biochemical; parameters: species or system M. tuberculosis; conditions: 3 nM PknB, 6 uM GarA, 3 μM ATP, 30 min; competitive tight-binding fit; several symbols in a cell = repeat determinations; read-out: Ki Values
pKi: −log10 of the molar value.

Asked: Return the recorded pKi value; entry: C#Cc1cnc(-c2ccc(C(O)CCCO)s2)nc1Nc1cc(C2CC2)[nH]n1 (stereo not shown) [Compound 223]
Given back: 8.00 to 9.00

Asked: Retrieve pKi measured for CNS(=O)(=O)c1ccc(-c2ncc(F)c(Nc3cc(C4CC4)[nH]n3)n2)s1 [Compound 43] and print it.
Given back: 8.00 to 9.00

Asked: Write down pKi measured for item OCc1ccc(-c2ncc(F)c(Nc3cc(C4CC4)[nH]n3)n2)s1 [Compound 26]
Given back: 7.30 to 8.00

Asked: Identify the reported pKi for the following entry. O=S(=O)(c1ccc(-c2ncc(Cl)c(Nc3cc(C4CC4)[nH]n3)n2)s1)N1CCCC1 [Compound 98]
Given back: 8.00 to 9.00

Asked: Look up and report measured pKi for this entry: C#Cc1cnc(-c2ccc(C(C)C#N)s2)nc1Nc1cc(C2CC2)[nH]n1 (stereo not shown) [Compound 227]
Given back: 8.00 to 9.00

Asked: Quote pKi reported for O=S(=O)(NC1CC1)c1ccc(Nc2nccc(Nc3cc(C4CC4)n[nH]3)n2)cc1 [Compound 90] please.
Given back: 7.30 to 8.00

Asked: Note pKi for the compound shown: CS(=O)(=O)NCc1ccc(-c2ncc(Cl)c(Nc3cc(C4CC4)n[nH]3)n2)s1 [Compound 280]
Given back: 7.30 to 8.00

Asked: Please list pKi recorded for the compound C#Cc1cnc(N2CCCCC2C(=O)O)nc1Nc1cc(C2CC2)n[nH]1 (stereo not shown) [Compound 245]
Given back: < 5.40

Asked: Let me know recorded pKi for Cc1cc(Nc2ccnc(Nc3ccc(S(N)(=O)=O)cc3)n2)[nH]n1 [Compound 76] , thanks.
Given back: 7.30 to 8.00

Asked: Provide one value: measured pKi of N#Cc1ccc(Nc2ncc(Cl)c(Nc3cc(C4CC4)[nH]n3)n2)cc1 [Compound 84]
Given back: 7.30 to 8.00

Asked: Hello, please tell me recorded pKi for this one: CN(CCO)S(=O)(=O)c1cccc(-c2ncc(Cl)c(Nc3cc(C4CC4)[nH]n3)n2)c1 [Compound 134]
Given back: 7.30 to 8.00

Asked: Return pKi (reported value) for this compound: COc1cnc(N2CCN(C)CC2)nc1Nc1cc(C2CC2)[nH]n1 [Compound 67]
Given back: 7.30 to 8.00

Asked: Determine from records and report pKi for CC(=O)Nc1cnc(-c2ccccc2)nc1Nc1cc(C2CC2)n(C(C)=O)n1 [Compound 3]
Given back: < 5.40

Asked: Specify measured pKi for CC(C)(C)NS(=O)(=O)c1cccc(-c2ncc(O)c(Nc3cc(C4CC4)n[nH]3)n2)c1 [Compound 102] .
Given back: 7.00 to 7.30

Asked: Return reported pKi. Input compound: CC(=O)c1sc(-c2ncc(Cl)c(Nc3cc(C4CC4)[nH]n3)n2)nc1C [Compound 297]
Given back: 7.30 to 8.00

Asked: Write down pKi measured for item CC(=O)n1nc(Nc2nc(-c3ccccc3)ncc2N)cc1C1CC1 [Compound 4]
Given back: 6.30 to 7.00

Asked: Specify reported pKi for the compound shown: C#Cc1cnc(-c2cccc(S(=O)(=O)NCCO)c2)nc1Nc1cc(C2CC2)[nH]n1 [Compound 122]
Given back: 7.30 to 8.00

Asked: Identify measured pKi corresponding to NS(=O)(=O)c1cccc(-c2ncc(F)c(Nc3cc(C4CC4)[nH]n3)n2)c1 [Compound 35]
Given back: 7.30 to 8.00

Asked: Identify measured pKi corresponding to C#Cc1cnc(-c2ccc(S(=O)(=O)NCCO)s2)nc1Nc1cc(C2CC2)[nH]n1 [Compound 108]
Given back: 8.00 to 9.00

Asked: Specify pKi for COc1ccc(-c2ncc(Cl)c(Nc3cc(C4CC4)[nH]n3)n2)cc1S(N)(=O)=O [Compound 161] and stop.
Given back: 7.00 to 7.30

Asked: Specify reported pKi for the compound shown: C#Cc1cnc(-c2ccc(S(=O)(=O)NCCNC(=O)C(C)(C)C)s2)nc1Nc1cc(C2CC2)n[nH]1 [Compound 183]
Given back: 7.00 to 7.30

Asked: Retrieve pKi measured for NS(=O)(=O)c1ccc(-c2ncc(Cl)c(Nc3cc(C4CCCC4)[nH]n3)n2)s1 [Compound 235] and print it.
Given back: 7.30 to 8.00

Asked: Let me know recorded pKi for NS(=O)(=O)c1ccc(-c2nc(Nc3n[nH]c(C4CC4)c3Cl)cc(C(=O)O)n2)s1 [Compound 292] , thanks.
Given back: < 5.40

Asked: Check the records and state pKi for CNS(=O)(=O)c1cccc(-c2ncc(Cl)c(Nc3cc(C4CC4)[nH]n3)n2)c1 [Compound 127]
Given back: 7.30 to 8.00

Asked: Fill in pKi for record C#Cc1cnc(-c2ccc(CC#N)cc2)nc1Nc1cc(C2CC2)[nH]n1 [Compound 85]
Given back: 7.30 to 8.00

Asked: Report pKi for C/C=C/c1cnc(-c2ccccc2)nc1Nc1cc(C2CC2)[nH]n1 [Compound 11]
Given back: 6.30 to 7.00

Asked: Provide one value: measured pKi of Cc1cnc(-c2ccc(S(=O)(=O)NC(C)(C)C)s2)nc1Nc1cc(C2CC2)n(C)n1 [Compound 149]
Given back: < 5.40

Asked: # return recorded pKi for entry NS(=O)(=O)c1ccc(-c2nc(Nc3cc(C4CC4)[nH]n3)cc(C(=O)O)n2)s1 [Compound 283]
Given back: 6.30 to 7.00
